test system: p-sites in DNA-damaged AsPC-1 cells; test: decryptM dose-resolved phosphoproteomics of ATRi in GEM-pre-treated cells; assay type: cell-based, human; settings: BRD8-pS621
Entries and their measured Log2 PTM response (GEM+ATRi vs. GEM) follow.

The cases that follow already have their Log2 PTM response (GEM+ATRi vs. GEM) on record.
1) Nc1nn2cc(F)cnc2c1C(=O)Nc1cncc(F)c1N1CCC(C(=O)N2CCN(C3COC3)CC2)CC1; -1.6
2) C[C@@H]1COCCN1c1cc(C2([S@](C)(=N)=O)CC2)nc(-c2cc[nH]c3nccc2-3)n1; -1.7
3) C[C@@H]1COCCN1c1cc(-c2ccnn2C)c2ccnc(-c3ccn[nH]3)c2n1; -1.4

// "CNCc1ccc(-c2cc(-c3nc(-c4ccc(S(=O)(=O)C(C)C)cc4)cnc3N)on2)cc1" : Log2 PTM response (GEM+ATRi vs. GEM) value = -2.5
